Assayed target: F508delCFTR (Homo sapiens, UniProt P13569, DEL508-508)
Construct: expressed in transfected cells; host or cells: CFBE41o- human lung derived epithelial cells (CFBE41o-F508delCFTR-HRP), doxycycline-inducible
Sequence (P13569 with tags, fused parts or gaps DEL508-508): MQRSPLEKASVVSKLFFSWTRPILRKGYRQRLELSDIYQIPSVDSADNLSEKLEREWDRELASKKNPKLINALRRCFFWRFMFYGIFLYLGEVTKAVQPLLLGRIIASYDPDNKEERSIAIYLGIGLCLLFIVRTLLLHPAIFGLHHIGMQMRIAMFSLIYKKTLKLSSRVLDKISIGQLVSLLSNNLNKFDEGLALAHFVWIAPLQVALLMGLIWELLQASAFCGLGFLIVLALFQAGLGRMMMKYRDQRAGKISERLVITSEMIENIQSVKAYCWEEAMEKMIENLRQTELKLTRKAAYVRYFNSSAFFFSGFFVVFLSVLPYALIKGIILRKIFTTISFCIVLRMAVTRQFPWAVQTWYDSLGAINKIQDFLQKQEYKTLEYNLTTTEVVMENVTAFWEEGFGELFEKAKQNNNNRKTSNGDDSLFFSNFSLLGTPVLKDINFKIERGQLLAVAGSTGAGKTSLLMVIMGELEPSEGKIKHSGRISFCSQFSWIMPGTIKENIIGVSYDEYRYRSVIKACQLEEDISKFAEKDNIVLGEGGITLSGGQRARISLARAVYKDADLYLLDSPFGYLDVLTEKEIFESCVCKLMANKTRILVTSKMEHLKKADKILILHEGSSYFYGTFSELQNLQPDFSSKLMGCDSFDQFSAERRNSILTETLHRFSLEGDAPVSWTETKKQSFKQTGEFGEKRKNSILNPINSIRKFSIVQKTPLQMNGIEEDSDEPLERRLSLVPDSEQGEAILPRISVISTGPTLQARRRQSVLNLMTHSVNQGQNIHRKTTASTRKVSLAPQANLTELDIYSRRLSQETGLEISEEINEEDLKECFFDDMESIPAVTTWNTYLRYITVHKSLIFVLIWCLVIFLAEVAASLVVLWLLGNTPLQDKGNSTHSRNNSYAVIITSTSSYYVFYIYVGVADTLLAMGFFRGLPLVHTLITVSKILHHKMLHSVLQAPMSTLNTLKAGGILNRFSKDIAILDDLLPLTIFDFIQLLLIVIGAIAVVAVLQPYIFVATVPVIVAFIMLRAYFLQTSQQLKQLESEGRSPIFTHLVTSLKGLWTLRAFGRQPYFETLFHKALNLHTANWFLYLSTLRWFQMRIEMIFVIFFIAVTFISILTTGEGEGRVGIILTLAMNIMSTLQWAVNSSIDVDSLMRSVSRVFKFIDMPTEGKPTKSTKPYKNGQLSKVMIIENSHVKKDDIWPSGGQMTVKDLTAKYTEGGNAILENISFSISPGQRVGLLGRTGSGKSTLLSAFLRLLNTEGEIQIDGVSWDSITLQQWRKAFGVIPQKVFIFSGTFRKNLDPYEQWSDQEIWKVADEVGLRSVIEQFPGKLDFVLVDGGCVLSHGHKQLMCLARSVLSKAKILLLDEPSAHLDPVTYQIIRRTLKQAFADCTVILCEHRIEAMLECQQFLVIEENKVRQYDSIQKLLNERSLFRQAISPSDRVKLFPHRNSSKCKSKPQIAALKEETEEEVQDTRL
Experiment notes: Cell Surface Expression-Horse Radish Peroxidase (CSE-HRP) Assay
Type: cell-based
Conditions: test compound alone, without co-corrector; read-out: EC50 (without co-corrector)
Readout label: EC50

Exam item: Check the records and state EC50 for COCc1ccc(OC)c(C2(C(=O)NS(=O)(=O)c3cccc4ncccc34)CC2)c1 [II-49]
Marked response: < 3 µM

Exam item: Determine from records and report EC50 for CO[C@@H](C)COc1ccc(C)cc1C1(C(=O)NS(=O)(=O)c2cccc3nc(C)ccc23)CC1 [Example I-114]
Marked response: < 3 µM

Exam item: In one line, give reported EC50 of the entry COc1ccc(C2CCC2)cc1C1(C(=O)NS(=O)(=O)c2cccc3c2CCCN3)CCC1 [Example I-10] .
Marked response: 3 to 10 µM

Exam item: Retrieve EC50 measured for COC[C@@H](C)Oc1ccc(C)cc1C1(C(=O)NS(=O)(=O)c2cccc3nc(C)ccc23)CC1 [Example I-107] and print it.
Marked response: < 3 µM

Exam item: Supply recorded EC50 for CCOc1ccc(C2(OC)CCC2)cc1C1(C(=O)NS(=O)(=O)c2cccc3ncccc23)CC1 [Example I-102] here.
Marked response: < 3 µM

Exam item: For the molecule Cc1ccccc1S(=O)(=O)NC(=O)C1(c2ccc3c(c2)OCO3)CC1 [Example III-86] , give its measured EC50 value.
Marked response: 3 to 10 µM

Exam item: Entry O=C(NS(=O)(=O)c1cccc2ncccc12)C1(c2cccc(Br)c2)CC1 [Example III-93] needs its EC50 filled in; supply it.
Marked response: 3 to 10 µM

Exam item: Dear colleague, please send me the reported EC50 for COc1ncc(C2CCC2)cc1C1(C(=O)NS(=O)(=O)c2cccn3nccc23)CC1 [Example I-19] when you can.
Marked response: < 3 µM

* * *

Assayed target: F508delCFTR (Homo sapiens, UniProt P13569, DEL508-508)
Construct: expressed in transfected cells; host or cells: CFBE41o- human lung derived epithelial cells (CFBE41o-F508delCFTR-HRP), doxycycline-inducible
Experiment notes: Cell Surface Expression-Horse Radish Peroxidase (CSE-HRP) Assay
Type: cell-based
Conditions: test compound alone, without co-corrector; read-out: EC50 (without co-corrector)
pEC50: −log10 of the molar value.
Readout label: pEC50

Exam item: Specify reported pEC50 for the compound shown: O=C(NS(=O)(=O)c1cccc2ncccc12)C1(c2ccccc2OC(F)(F)F)CCC1
Marked response: 5.00 to 5.52

Exam item: Given the compound COc1ccc(C2CCC2)cc1C1(C(=O)NS(=O)(=O)c2cccc3nc(C)ccc23)CC1 , write its reported pEC50.
Marked response: > 5.52

Exam item: Identify pEC50 associated with the compound COc1ccc(C2CCC2)cc1C1(C(=O)NS(=O)(=O)c2cccc3c2CCN3)CC1
Marked response: > 5.52

Exam item: In one line, give reported pEC50 of the entry CN(C)c1ncc(C(F)(F)F)cc1C1(C(=O)NS(=O)(=O)c2cccc3ccccc23)CC1 .
Marked response: > 5.52

Exam item: Specify measured pEC50 for COc1ncc(C2CCC2)cc1C1(C(=O)NS(=O)(=O)c2cccc3ncc(C)n23)CC1 .
Marked response: 5.00 to 5.52

Exam item: Give pEC50 for COc1ccc(C)cc1C1(C(=O)NS(=O)(=O)c2cccc3[nH]ncc23)CC1
Marked response: 5.00 to 5.52

Exam item: Give pEC50 for CCOc1ccc(C(C)(C)OC)cc1C1(C(=O)NS(=O)(=O)c2cccc3nc(C)ccc23)CC1
Marked response: > 5.52

Exam item: Let me know recorded pEC50 for COc1ccc(CO)cc1C1(C(=O)NS(=O)(=O)c2cccc3ncccc23)CC1 , thanks.
Marked response: < 5.00

Exam item: Read off the recorded pEC50 for Cc1ccc(C2(C(=O)NS(=O)(=O)c3ccccc3)CC2)cc1
Marked response: 5.00 to 5.52

Exam item: Please list pEC50 recorded for the compound COc1cc(C2(C(=O)NS(=O)(=O)c3cccc4nc(C)ccc34)CC2)c(OCC(C)C)cn1
Marked response: > 5.52

Exam item: Annotate the compound COc1ccc(C2CCCC2)cc1C1(C(=O)NS(=O)(=O)c2cccc3c2CCCN3)CCC1 with its measured pEC50.
Marked response: > 5.52

Exam item: Recall and state the measured pEC50 for O=C(NS(=O)(=O)CC(F)(F)F)C1(c2ccc(Cl)cc2Cl)CC1 .
Marked response: < 5.00

Exam item: Using the record for O=C(NS(=O)(=O)c1ccccc1Cl)C1(c2cccc(Cl)c2)CC1 , state its measured pEC50.
Marked response: 5.00 to 5.52

Exam item: Supply reported pEC50 belonging to this compound: CC(=O)N1CCC(S(=O)(=O)NC(=O)C2(c3ccc(Cl)cc3Cl)CC2)CC1
Marked response: < 5.00

Exam item: Supply reported pEC50 belonging to this compound: Cc1ccc(C)c(C2(C(=O)NS(=O)(=O)c3cccc4ncccc34)CC2)c1
Marked response: > 5.52

Exam item: Check the records and state pEC50 for COc1ccc(C2CCC2)cc1C1(C(=O)NS(=O)(=O)c2cccc3[nH]ncc23)CC1
Marked response: > 5.52

Exam item: Output pEC50 of O=C(OCc1ccccc1)N1CCC(S(=O)(=O)NC(=O)C2(c3ccc(Cl)cc3Cl)CC2)CC1
Marked response: < 5.00

Exam item: Please indicate pEC50 recorded for COc1cc(F)c(C(C)C)cc1C1(C(=O)NS(=O)(=O)c2cccc3ncccc23)CC1
Marked response: > 5.52

Exam item: Give the measured pEC50 for COc1ncc(C2CCC2)cc1C1(C(=O)NS(=O)(=O)c2cccc3ncccc23)CC1
Marked response: > 5.52

Exam item: Fill in reported pEC50 for this entry: COc1ccc(C(C)(C)C)cc1C1(C(=O)NS(=O)(=O)c2cccc3nc(C)ccc23)CC1
Marked response: > 5.52

Exam item: Output measured pEC50 for this item: CCc1ccc(OC)c(C2(C(=O)NS(=O)(=O)c3cccc4nc(N)ccc34)CC2)c1
Marked response: > 5.52

Exam item: Quote pEC50 reported for Cc1ccc(OC(C)C)c(C2(C(=O)NS(=O)(=O)c3cccc4nc(N)ccc34)CC2)c1 please.
Marked response: > 5.52

Exam item: Give pEC50 for the following compound: CCn1nc(C2(C(=O)NS(=O)(=O)c3cccc4ccccc34)CC2)cc1C
Marked response: 5.00 to 5.52

Exam item: Kindly indicate its recorded pEC50. Item: COCC1(c2ccc(OC)c(C3(C(=O)NS(=O)(=O)c4cccc5ncccc45)CC3)c2)CC1
Marked response: > 5.52

Exam item: Report pEC50 for COc1ncc(C(F)(F)F)cc1C1(C(=O)NS(=O)(=O)c2cccc3c2ccn3C)CC1
Marked response: 5.00 to 5.52

Exam item: Please indicate pEC50 recorded for COc1cccc(-c2cnn(C)c2)c1C1(C(=O)NS(=O)(=O)c2cccc3ncccc23)CC1
Marked response: 5.00 to 5.52

Exam item: Determine from records and report pEC50 for O=C(NS(=O)(=O)c1cccc(C(F)(F)F)c1)C1(c2ccc(Cl)cc2Cl)CC1
Marked response: 5.00 to 5.52

Exam item: State its pEC50 for this compound: COc1cc(C2CCC2)cc(OC)c1C1(C(=O)NS(=O)(=O)c2cccc3nc(N)ccc23)CC1
Marked response: > 5.52

Exam item: Hello, please tell me recorded pEC50 for this one: Cc1ccccc1S(=O)(=O)NC(=O)C1(c2cccc(Cl)c2)CCCC1
Marked response: < 5.00

* * *

Assayed target: F508delCFTR (Homo sapiens, UniProt P13569, DEL508-508)
Construct: expressed in transfected cells; host or cells: CFBE41o- human lung derived epithelial cells (CFBE41o-F508delCFTR-HRP), doxycycline-inducible
Experiment notes: Cell Surface Expression-Horse Radish Peroxidase (CSE-HRP) Assay
Format: cell-based
Conditions: with co-corrector; maximum at any tested concentration
Readout label: Maximum % activity (with co-corrector)

CCCS(=O)(=O)NC(=O)C1(c2cccc(C)c2)CCOCC1 = + (<150)
COc1ccc(C2(C(=O)NS(=O)(=O)c3cccc4ccccc34)CCC2)cc1OC = + (<150)
COc1cc(C2(C(=O)NS(=O)(=O)c3cccc4nc(N)ccc34)CC2)c(OCC(C)C)cn1 = +++ (≥350)
CCc1cnc(OCC(C)C)c(C2(C(=O)NS(=O)(=O)c3cccc4[nH]ncc34)CC2)c1 = +++ (≥350)
CCOCC(C)(C)c1ccc(OC)c(C2(C(=O)NS(=O)(=O)c3cccc4ncccc34)CC2)c1 = +++ (≥350)
COc1ccc(C2CCC2)cc1C1(C(=O)NS(=O)(=O)c2cccn3nccc23)CCC1 = +++ (≥350)
COc1ccc(C2CCC2)cc1C1(C(=O)NS(=O)(=O)c2cccc3ccccc23)CC1 = +++ (≥350)
CCCc1nc(C(F)(F)F)ccc1C1(C(=O)NS(=O)(=O)c2cccc3ncccc23)CC1 = +++ (≥350)

Exam item: Answer with reported Maximum % activity (with co-corrector) of COc1cc(C2CCC2)cc(OC)c1C1(C(=O)NS(=O)(=O)c2cccc3cnn(C)c23)CC1
Marked response: +++ (≥350)

Exam item: Tell me its Maximum % activity (with co-corrector) given CN(C)c1cccc2c(S(=O)(=O)NC(=O)C3(c4cccc(Cl)c4)CC3)cccc12 as the entry.
Marked response: ++ (≥150 and <350)

Exam item: Retrieve Maximum % activity (with co-corrector) measured for COc1cc(C2CCC2)cc(OC)c1C1(C(=O)NS(=O)(=O)c2cccc3ncn(C)c23)CC1 and print it.
Marked response: +++ (≥350)

Exam item: Please indicate Maximum % activity (with co-corrector) recorded for COc1ccc(C2CCC2)cc1C1(C(=O)NS(=O)(=O)c2cccc3c2CCN3)CC1
Marked response: +++ (≥350)

Exam item: Return the recorded Maximum % activity (with co-corrector) value; entry: O=C(NS(=O)(=O)c1cccc2c1CCCN2)C1(c2ccc(C(F)(F)F)nc2C2CCC2)CC1
Marked response: +++ (≥350)

Exam item: Provide one value: measured Maximum % activity (with co-corrector) of CC(C)Oc1ccc(S(=O)(=O)NC(=O)C2(c3ccc(Cl)cc3Cl)CC2)cc1
Marked response: + (<150)

Exam item: Consider the molecule COc1ccc(C#N)cc1C1(C(=O)NS(=O)(=O)c2cccc3ncccc23)CC1 and give its recorded Maximum % activity (with co-corrector).
Marked response: +++ (≥350)

Exam item: Indicate its recorded Maximum % activity (with co-corrector); the molecule in question is COc1ccc(C(F)(F)F)cc1C1(C(=O)NS(=O)(=O)c2cccc3c2CCCN3)CC1
Marked response: +++ (≥350)

Exam item: Quote Maximum % activity (with co-corrector) reported for COc1cc(C2(C(=O)NS(=O)(=O)c3cccc4[nH]ncc34)CC2)c(OCC(C)C)cn1 please.
Marked response: +++ (≥350)
